target-entity: Muscarinic acetylcholine receptor M4 (Homo sapiens) (UniProt P08173)
Sequence (P08173 whole entry, looked up): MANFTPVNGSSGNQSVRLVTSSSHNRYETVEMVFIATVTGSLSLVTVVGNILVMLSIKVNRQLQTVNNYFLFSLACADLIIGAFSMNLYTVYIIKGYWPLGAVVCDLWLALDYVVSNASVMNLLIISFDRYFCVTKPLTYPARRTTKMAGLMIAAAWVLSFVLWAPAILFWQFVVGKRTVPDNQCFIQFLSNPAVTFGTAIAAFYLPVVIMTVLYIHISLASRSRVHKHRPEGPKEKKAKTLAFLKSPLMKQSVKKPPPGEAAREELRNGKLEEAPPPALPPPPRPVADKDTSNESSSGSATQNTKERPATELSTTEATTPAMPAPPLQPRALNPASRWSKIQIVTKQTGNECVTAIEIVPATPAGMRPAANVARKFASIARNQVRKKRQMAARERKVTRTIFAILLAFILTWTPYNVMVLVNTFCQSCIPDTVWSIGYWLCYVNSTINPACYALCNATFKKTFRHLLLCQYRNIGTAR
method-summary: M4-linked GIRK flux change, two-sided – cell-based, HEK293 M4/GIRK, thallium flux, BTC-AM, M4 allosteric agonist project, primary screen (AID 625);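 note: thallium influx through GIRK channels coupled to M4 in HEK293 cells with BTC-AM dye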
recorded-conditions: at 10 µM, actives lie on both sides
Activity calls are given as the source filed them.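 Rule for the calls: active = fluorescence slope after compound addition differing from the mean of all tested samples at 99.7% confidence, mostly higher but some lower; inactive = the rest.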
value-kind: fluorescence slope

[ask] For the compound Cc1ccccc1S(=O)(=O)Cc1ccc(C(=O)NCc2cccnc2)o1 , what fluorescence slope is on record?
[reply] 0.00552 (inactive)

[ask] For the compound Cc1ccc(-c2cc(C(=O)N3CCCC3)no2)cc1 , what fluorescence slope is on record?
[reply] 0.00612 (inactive)

[ask] For the compound CC(Oc1ccc(Cl)cc1Cl)c1nc(-c2ccc(NC(=O)c3cccnc3)cc2)no1 (centres undefined) , what fluorescence slope is on record?
[reply] 0.00494 (inactive)

[ask] For the compound O=C(Nc1cccc2c1CCCC2)C1CCN(c2nnnn2-c2ccccc2)CC1 , what fluorescence slope is on record?
[reply] 0.00472 (inactive)

[ask] For the compound Nc1nc(C(=O)N2CCOCC2)nn1S(=O)(=O)c1ccc(Cl)cc1 , what fluorescence slope is on record?
[reply] 0.00923 (inactive)

[ask] For the compound CCn1c(SCC(=O)Nc2nnc(C)s2)nnc1-c1ccncc1 , what fluorescence slope is on record?
[reply] 0.00811 (inactive)

[ask] For the compound O=C(c1cc2ccccc2oc1=O)N1CCSC1c1ccco1 (centres undefined) , what fluorescence slope is on record?
[reply] 0.00556 (inactive)

[ask] For the compound Cc1ccc(F)cc1NC(=O)Cc1nn(C)c(=O)c2ccccc12 , what fluorescence slope is on record?
[reply] 0.00476 (inactive)

[ask] For the compound CCOC(=O)N1CCN(c2cc3[nH]c(=S)[nH]c3cc2F)CC1 , what fluorescence slope is on record?
[reply] 0.00501 (inactive)

[ask] For the compound Cc1cc(C)cc(-n2ccnc2SCC(=O)Nc2ccc3c(c2)OCCO3)c1 , what fluorescence slope is on record?
[reply] 0.00517 (inactive)

[ask] For the compound CCCCc1cc(=O)oc2cc(C)cc(OC(C)C(=O)O)c12 (centres undefined) , what fluorescence slope is on record?
[reply] 0.00603 (inactive)

[ask] For the compound CN1CCCC(OC(=O)COc2ccc(Br)cc2)C1 (centres undefined) , what fluorescence slope is on record?
[reply] 0.0054 (inactive)

[ask] For the compound O=C(Nc1cccc(C(F)(F)F)c1)c1cccnc1N1CCCC1 , what fluorescence slope is on record?
[reply] 0.00477 (inactive)

[ask] For the compound Cc1ccc2c(c1)c1c(n2CC(O)Cn2c(C)nc3ccccc32)/C(=N\O)CCC1 (centres undefined) , what fluorescence slope is on record?
[reply] 0.00656 (inactive)

[ask] For the compound CC(C)n1c(=NC(=O)c2ccco2)c(C#N)cc2c(=O)n3ccccc3cc21 , what fluorescence slope is on record?
[reply] 0.00331 (inactive)

[ask] For the compound COc1cccc(-c2cc(C(=O)N3CCCc4ccccc43)no2)c1 , what fluorescence slope is on record?
[reply] 0.00726 (inactive)

[ask] For the compound CCOc1ccc(OCc2cccc(C(=O)O)c2)cc1 , what fluorescence slope is on record?
[reply] 0.00598 (inactive)

[ask] For the compound CCCCNC(=O)c1cc(-c2ccc(F)cc2)on1 , what fluorescence slope is on record?
[reply] 0.00454 (inactive)

[ask] For the compound CN1CCN(C(=O)CN(Cc2ccc(Cl)cc2)S(C)(=O)=O)CC1 , what fluorescence slope is on record?
[reply] 0.00447 (inactive)

[ask] For the compound CCOC(=O)c1[nH]nc(-c2c(O)cc(C)cc2O)c1-c1csc(C)n1 , what fluorescence slope is on record?
[reply] 0.00535 (inactive)

[ask] For the compound N#CCSCC(=O)Nc1ccc(F)cc1 , what fluorescence slope is on record?
[reply] 0.00474 (inactive)

[ask] For the compound CCCn1c(=N)n(CC(=O)c2cccs2)c2ccccc21 , what fluorescence slope is on record?
[reply] 0.00423 (inactive)

[ask] For the compound CC(C(=O)N1CCOCC1)N1c2cccc3cccc(c23)S1(=O)=O (centres undefined) , what fluorescence slope is on record?
[reply] 0.00313 (inactive)

[ask] For the compound O=C(COC(=O)c1ccc(S(=O)(=O)Nc2ccccc2)cc1)NCCN1C(=O)CSC1=O , what fluorescence slope is on record?
[reply] 0.0079 (inactive)

[ask] For the compound O=C(CNS(=O)(=O)c1ccc(Br)s1)N1CCN(c2ncccn2)CC1 , what fluorescence slope is on record?
[reply] 0.00447 (inactive)

[ask] For the compound CCOC(=O)CNC(=O)CSc1ncnc2c1cnn2-c1ccccc1 , what fluorescence slope is on record?
[reply] 0.00493 (inactive)

[ask] For the compound N#C[C@@H]1[C@@H]2C(=O)N(c3ccc4c(c3)OCCO4)C(=O)[C@@H]2C2c3ccccc3C=CN21 (some centres undefined) , what fluorescence slope is on record?
[reply] 0.00563 (inactive)

[ask] For the compound NC(=O)C1(N2CCCCC2)CCN(C2CC(=O)N(Cc3cccs3)C2=O)CC1 (centres undefined) , what fluorescence slope is on record?
[reply] 0.00707 (inactive)

[ask] For the compound CCOC(=O)CC(NS(=O)(=O)c1ccc(NC(C)=O)cc1)c1ccc(OCC)cc1 (centres undefined) , what fluorescence slope is on record?
[reply] 0.00588 (inactive)

[ask] For the compound O=C(Cn1nc(-c2ccc(Cl)cc2)ccc1=O)NCCCN1CCN(Cc2ccccc2)CC1 , what fluorescence slope is on record?
[reply] 0.00673 (inactive)

[ask] For the compound CCn1c(SCC(=O)c2ccc3c(c2)OCCO3)nnc1-c1ccco1 , what fluorescence slope is on record?
[reply] 0.00561 (inactive)

[ask] For the compound COC(=O)CN1C(=O)C2(C(C#N)=C(N)Oc3c2c(C)nn3-c2ccccc2)c2ccccc21 (centres undefined) , what fluorescence slope is on record?
[reply] 0.0047 (inactive)

[ask] For the compound COc1ccc(-c2nn3c(-c4ccncc4)nnc3s2)cc1OC , what fluorescence slope is on record?
[reply] 0.00419 (inactive)

[ask] For the compound CCOc1ccc(-n2c(C)nc3c(cnn3-c3ccc(Cl)cc3)c2=O)cc1 , what fluorescence slope is on record?
[reply] 0.00771 (inactive)

[ask] For the compound CCOc1cc(C2C(C(=O)OC(C)C)=C(C)N=C3SCCC(=O)N32)ccc1OC(C)=O (centres undefined) , what fluorescence slope is on record?
[reply] 0.00512 (inactive)

[ask] For the compound Cc1nc2ccccn2c1/C(O)=C1\C(=O)C(=O)N(CCN2CCOCC2)C1c1cccs1 (centres undefined) , what fluorescence slope is on record?
[reply] 0.00659 (inactive)

[ask] For the compound CC(=O)c1cc(-c2ccccc2)n(CC(=O)N2CCC(N3CCCCC3)CC2)c1C , what fluorescence slope is on record?
[reply] 0.00662 (inactive)

[ask] For the compound Cc1cccc(N(C)C(=O)c2cc3cc4ccc(C)cc4nc3o2)c1 , what fluorescence slope is on record?
[reply] 0.00523 (inactive)

[ask] For the compound CC(C)c1ccc(S(=O)(=O)N2CCN(C(=O)c3cccc(F)c3)CC2)cc1 , what fluorescence slope is on record?
[reply] 0.00667 (inactive)

[ask] For the compound CC(NC(=O)c1ccc(F)cc1)C(c1cccs1)N1CCN(C)CC1 (centres undefined) , what fluorescence slope is on record?
[reply] 0.00581 (inactive)

[ask] For the compound COc1cccc(Oc2ccc(N)cc2)c1 , what fluorescence slope is on record?
[reply] 0.00432 (inactive)

[ask] For the compound COc1cccc(-c2cc(C(=O)Nc3c(C)nn(Cc4ccccc4)c3C)no2)c1 , what fluorescence slope is on record?
[reply] 0.00831 (inactive)

[ask] For the compound CCCc1nn(CCc2ccccn2)c(N)c1CC , what fluorescence slope is on record?
[reply] 0.00633 (inactive)

[ask] For the compound Cc1nc2ccc(S(=O)(=O)NCC(=O)O)cc2s1 , what fluorescence slope is on record?
[reply] 0.00579 (inactive)

---

target-entity: Muscarinic acetylcholine receptor M4 (Homo sapiens) (UniProt P08173)
method-summary: M4-linked GIRK flux change, two-sided – cell-based, HEK293 M4/GIRK, thallium flux, BTC-AM, M4 allosteric agonist project, primary screen (AID 625);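 note: thallium influx through GIRK channels coupled to M4 in HEK293 cells with BTC-AM dye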
recorded-conditions: at 10 µM, actives lie on both sides
Activity calls are given as the source filed them.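 The calls were made as follows: active = fluorescence slope after compound addition differing from the mean of all tested samples at 99.7% confidence, mostly higher but some lower; inactive = the rest.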
value-kind: fluorescence slope

[ask] For the molecule O=C(O)CSc1ccc2ccccc2n1 , what fluorescence slope is on record?
[reply] 0.00444 (inactive)

[ask] For the molecule Nc1cc(C(=O)O)ccc1Nc1ccccc1 , what fluorescence slope is on record?
[reply] 0.0056 (inactive)

[ask] For the molecule COc1ccc(C(=O)Nn2c(SCC(=O)NCC3CCCO3)nc3ccccc3c2=O)cc1 (configuration not stated) , what fluorescence slope is on record?
[reply] 0.00522 (inactive)

[ask] For the molecule O=C(O)c1[nH]nc2c1COc1ccccc1-2 , what fluorescence slope is on record?
[reply] 0.00437 (inactive)

[ask] For the molecule COc1ccccc1-c1c(C)nn2c(N3CCC4(CC3)OCCO4)cc(C)nc12 , what fluorescence slope is on record?
[reply] 0.00547 (inactive)

[ask] For the molecule CCOC(=O)N1CCN(C(=O)CN(C)S(=O)(=O)c2ccc(OC)c(OC)c2)CC1 , what fluorescence slope is on record?
[reply] 0.00404 (inactive)

[ask] For the molecule Cc1noc(C)c1COc1cccc(C(=O)Oc2ccc3c(c2)OCO3)c1 , what fluorescence slope is on record?
[reply] 0.00685 (inactive)

[ask] For the molecule CC(=O)c1cccc(NC(=O)c2ccc(NS(C)(=O)=O)cc2)c1 , what fluorescence slope is on record?
[reply] 0.00538 (inactive)

[ask] For the molecule CCCCn1cnc2c(cnn2-c2ccc(Cl)cc2)c1=O , what fluorescence slope is on record?
[reply] 0.00515 (inactive)

[ask] For the molecule CCC(Oc1ccc2ccccc2c1)C(=O)O (configuration not stated) , what fluorescence slope is on record?
[reply] 0.00595 (inactive)

[ask] For the molecule COC(=O)c1[nH]c2cccc(C)c2c1NC(=O)CN1CCCc2ccccc21 , what fluorescence slope is on record?
[reply] 0.00793 (inactive)

[ask] For the molecule O=C1c2ccccc2NC(c2ccco2)N1O (configuration not stated) , what fluorescence slope is on record?
[reply] 0.006 (inactive)
